pIC50: −log10 of the molar value.
reported-metric: pIC50

Could you share what pIC50 was measured for Cc1cn(CCN2CCN(c3ccccc3-c3cc(C#N)cc(C(=O)NCCCN4CCCC4)c3)CC2)c2ccccc12 , tested on hDMPK2 (Homo sapiens)? < 4.70

* * *

measurement-target: hCSNK1D (Homo sapiens, UniProt P48730)
Sequence (P48730 whole entry): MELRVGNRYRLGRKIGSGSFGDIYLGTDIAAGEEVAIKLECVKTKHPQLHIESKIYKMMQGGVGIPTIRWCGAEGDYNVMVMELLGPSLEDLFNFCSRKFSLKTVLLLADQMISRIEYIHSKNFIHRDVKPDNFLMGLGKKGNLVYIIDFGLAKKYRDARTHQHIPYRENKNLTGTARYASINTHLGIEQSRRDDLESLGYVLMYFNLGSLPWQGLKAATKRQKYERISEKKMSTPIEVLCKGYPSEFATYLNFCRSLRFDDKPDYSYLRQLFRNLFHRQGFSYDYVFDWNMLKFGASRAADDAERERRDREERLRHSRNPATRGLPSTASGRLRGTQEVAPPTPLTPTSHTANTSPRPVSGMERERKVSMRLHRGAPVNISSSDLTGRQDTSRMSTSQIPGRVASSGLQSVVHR
reported-metric: IC50

Given the compound Cc1cn(CCN2CCN(c3ccccc3-c3cc(C#N)cc(C(=O)NCCCN4CCCC4)c3)CC2)c2ccccc12 [LLY-507] , what is its reported IC50? > 20 µM

* * *

measurement-target: hMEK3 (Homo sapiens)
Sequence (P46734 1-347): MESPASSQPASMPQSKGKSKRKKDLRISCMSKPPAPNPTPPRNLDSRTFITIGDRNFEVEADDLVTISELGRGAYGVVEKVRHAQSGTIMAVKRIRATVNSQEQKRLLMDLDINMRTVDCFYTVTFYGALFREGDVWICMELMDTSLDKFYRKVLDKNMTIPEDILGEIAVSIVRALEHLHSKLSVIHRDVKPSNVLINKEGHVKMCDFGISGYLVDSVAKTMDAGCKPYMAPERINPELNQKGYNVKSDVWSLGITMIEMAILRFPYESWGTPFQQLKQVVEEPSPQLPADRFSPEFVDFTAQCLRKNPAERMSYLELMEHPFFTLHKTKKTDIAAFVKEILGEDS
pIC50: −log10 of the molar value.
reported-metric: pIC50

Recorded pIC50 of Cc1cn(CCN2CCN(c3ccccc3-c3cc(C#N)cc(C(=O)NCCCN4CCCC4)c3)CC2)c2ccccc12 , please. < 4.70
